target-or-test-system: Voltage-gated inwardly rectifying potassium channel KCNH2 (Homo sapiens)
Sequence (Q12809 whole entry): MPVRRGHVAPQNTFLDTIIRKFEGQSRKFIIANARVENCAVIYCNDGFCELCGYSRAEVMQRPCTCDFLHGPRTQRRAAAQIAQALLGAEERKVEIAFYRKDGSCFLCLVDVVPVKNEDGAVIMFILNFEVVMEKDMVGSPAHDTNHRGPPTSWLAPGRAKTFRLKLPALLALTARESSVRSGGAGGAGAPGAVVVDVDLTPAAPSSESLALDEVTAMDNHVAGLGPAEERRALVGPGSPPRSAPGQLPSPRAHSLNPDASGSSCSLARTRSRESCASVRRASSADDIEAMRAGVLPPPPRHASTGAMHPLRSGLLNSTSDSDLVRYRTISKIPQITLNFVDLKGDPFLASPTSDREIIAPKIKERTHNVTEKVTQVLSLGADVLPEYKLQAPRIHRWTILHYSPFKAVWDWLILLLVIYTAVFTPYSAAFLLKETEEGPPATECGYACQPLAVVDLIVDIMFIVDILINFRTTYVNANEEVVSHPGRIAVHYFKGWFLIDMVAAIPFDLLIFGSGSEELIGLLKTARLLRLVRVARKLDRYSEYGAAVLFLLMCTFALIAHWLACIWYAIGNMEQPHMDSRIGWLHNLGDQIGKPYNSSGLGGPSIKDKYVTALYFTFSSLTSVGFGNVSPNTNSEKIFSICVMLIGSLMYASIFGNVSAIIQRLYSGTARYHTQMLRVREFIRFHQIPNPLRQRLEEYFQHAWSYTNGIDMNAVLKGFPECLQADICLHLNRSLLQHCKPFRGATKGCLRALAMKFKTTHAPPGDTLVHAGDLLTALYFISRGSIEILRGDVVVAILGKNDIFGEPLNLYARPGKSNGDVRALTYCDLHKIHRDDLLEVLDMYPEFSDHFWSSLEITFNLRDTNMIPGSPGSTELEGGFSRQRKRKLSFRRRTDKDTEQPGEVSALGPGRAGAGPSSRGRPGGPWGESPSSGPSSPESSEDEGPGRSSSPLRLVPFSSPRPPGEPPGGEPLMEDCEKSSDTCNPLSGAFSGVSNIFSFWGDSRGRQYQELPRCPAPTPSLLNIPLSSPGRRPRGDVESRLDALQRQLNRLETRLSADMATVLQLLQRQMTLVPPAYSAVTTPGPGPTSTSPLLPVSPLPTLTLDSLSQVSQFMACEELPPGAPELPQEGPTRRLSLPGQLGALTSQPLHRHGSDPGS
test-method-notes: Inhibition of human ERG expressed in CHO cells after 10 mins by Rb efflux assay
quantity-name: IC50

# smiles-notation, target-or-test-system, IC50
records = [
    ("COc1ccc2c(c1)CCN(C(=O)CNCC1(O)CCCCC1)[C@@H]2C(C)C", "Voltage-gated inwardly rectifying potassium channel KCNH2 (Homo sapiens)", "> 100 µM"),
]

Proceed to the following item.
Query :: Voltage-gated inwardly rectifying potassium channel KCNH2 (Homo sapiens) / IC50 / COc1ccc2c(c1)CCN(C(=O)CNCC1(O)CCCCC1)[C@H]2C(C)C : value?
Result :: > 100 µM
